Documented IC50 (pM), IL-4 induced TF-1 cell proliferation across a set of binders
Target: T1, human IL-4Rα on TF-1 cells (human, UniProt P24394 26-825)
T1 sequence (looked up): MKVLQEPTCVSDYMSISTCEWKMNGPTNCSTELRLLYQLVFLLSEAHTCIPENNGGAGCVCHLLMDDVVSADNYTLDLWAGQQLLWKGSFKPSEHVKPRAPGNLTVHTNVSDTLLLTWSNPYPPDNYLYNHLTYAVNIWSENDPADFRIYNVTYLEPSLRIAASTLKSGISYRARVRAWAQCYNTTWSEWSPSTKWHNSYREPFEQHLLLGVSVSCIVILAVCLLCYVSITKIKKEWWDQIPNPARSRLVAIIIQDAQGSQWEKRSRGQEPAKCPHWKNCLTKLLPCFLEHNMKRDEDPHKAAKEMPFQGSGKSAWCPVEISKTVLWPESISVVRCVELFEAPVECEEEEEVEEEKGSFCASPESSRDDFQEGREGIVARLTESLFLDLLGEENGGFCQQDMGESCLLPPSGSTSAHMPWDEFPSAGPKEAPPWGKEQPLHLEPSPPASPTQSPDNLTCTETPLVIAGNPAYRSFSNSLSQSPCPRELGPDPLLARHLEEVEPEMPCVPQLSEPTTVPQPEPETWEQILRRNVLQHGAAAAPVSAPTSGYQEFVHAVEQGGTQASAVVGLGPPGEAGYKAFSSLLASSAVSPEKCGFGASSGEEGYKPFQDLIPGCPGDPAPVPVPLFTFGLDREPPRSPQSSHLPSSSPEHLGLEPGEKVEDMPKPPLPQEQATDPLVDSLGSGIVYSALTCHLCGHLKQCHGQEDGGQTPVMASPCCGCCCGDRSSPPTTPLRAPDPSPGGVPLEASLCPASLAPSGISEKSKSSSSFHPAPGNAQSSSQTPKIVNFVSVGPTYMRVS
Assay: cell-based or functional assay
quantityKind: IC50 (pM), IL-4 induced TF-1 cell proliferation

[
  {
    "binder": "Antibody 31 IgG (antibody, V domains shown) VH: QVQLVQSGAEVKKPGASVKVSCKASGYAFTSYYMHWARQAPGQGLEWMGIINPSGGSTSYAQKFQGRVTMTRDTSTSTVYMELSSLRSEDTAVYYCARGKYWMYDWGKGTLVTVSS VL: QSVLTQPPSVSAAPGQKVTISCSGGSSSIGNSYVSWYQQLPGTAPKLLIYDNNKRPSGIPDRFSGSKSGTSATLAITGLQTGDEADYYCGTWATSPVWEWPFGTGTKLTVL",
    "unitsLabel": "pM",
    "recordedResult": 20.2
  },
  {
    "binder": "Antibody 9 IgG (antibody, V domains shown) VH: QVQLVQSGAEVKKPGASVKVSCKASGYAFTSYYMHWARQAPGQGLEWMGIINPSGGSTSYAQKFQGRVTMTRDTSTSTVYMELSSLRSEDTAVYYCARGKWWLYNWGKGTLVTVSS VL: QSVLTQPPSVSAAPGQKVTISCSGGSSNIGNSYVSWYQQLPGTAPKLLIYDNNKRPSGIPDRFSGSKSGTSATLAITGLQTGDEADYYCGTWDTSTTMYPLFGTGTKLTVL",
    "unitsLabel": "pM",
    "recordedResult": 8.88
  },
  {
    "binder": "Antibody 7 IgG (antibody, V domains shown) VH: QVQLVQSGAEVKKPGASVKVSCKASGYAFTSYYMHWARQAPGQGLEWMGIINPSGGSTSYAQKFQGRVTMTRDTSTSTVYMELSSLRSEDTAVYYCARGKWWWQYWGKGTLVTVSS VL: QSVLTQPPSVSAAPGQKVTISCSGGSSNIGNSYVSWYQQLPGTAPKLLIYDNNKRPSGIPDRFSGSKSGTSATLAITGLQTGDEADYYCGTWDTSSPPQPIFGTGTKLTVL",
    "unitsLabel": "pM",
    "recordedResult": 12.3
  },
  {
    "binder": "Antibody 21 IgG (antibody, V domains shown) VH: QVQLVQSGAEVKKPGASVKVSCKASGYAFTSYYMHWARQAPGQGLEWMGIINPSGGSASYAQKFQGRVTMTRDTSTSTVYMELSSLRSEDTAVYYCARGKYWMYDWGKGTLVTVSS VL: QSVLTQPPSVSAAPGQKVTISCSGGSSNIGNSYVSWYQQLPGTAPKLLIYDNNKRPSGIPDRFSGSKSGTSATLAITGLQTGDEAVYFCGTWDTSTVWEWPFGTGTKLTVL",
    "unitsLabel": "pM",
    "recordedResult": 19.7
  }
]
